Experiment: Whole-body excretion studies in rats after oral administration (whole-body counts, bi-exponential fit)
Format: in vivo, rat
Settings: Retention(t)=ae^-xt+be^-yt+c
Would you kindly list b (amplitude of second component) for each of these compounds?
One number for each entry, in %.

For every item in the list below, what is its measured b (amplitude of second component)?
1. C[C@H](CC[75Se]CCC(=O)O)[C@H]1CC[C@H]2[C@@H]3[C@H](O)C[C@@H]4C[C@H](O)CC[C@]4(C)[C@H]3C[C@H](O)[C@]12C [iv]
2. C[C@H](CCC[75Se]CC(=O)O)[C@H]1CC[C@H]2[C@@H]3CC[C@@H]4C[C@H](O)CC[C@]4(C)[C@H]3CC[C@]12C [vii]

*A*
1: 42.5; 2: 11.8

For every item in the list below, what is its measured b (amplitude of second component)?
1. CC([75Se]CC(=O)O)[C@H]1CC[C@H]2[C@@H]3[C@H](O)C[C@@H]4C[C@H](O)CC[C@]4(C)[C@H]3C[C@H](O)[C@]12C (stereo partly shown) [v]
2. C[C@H](CC[123Te]CC(=O)O)[C@H]1CC[C@H]2[C@@H]3CC[C@@H]4C[C@H](O)CC[C@]4(C)[C@H]3C[C@H](O)[C@]12C [viii]
3. CC([75Se]CC(=O)NCC(=O)O)[C@H]1CC[C@H]2[C@@H]3[C@H](O)C[C@@H]4C[C@H](O)CC[C@]4(C)[C@H]3C[C@H](O)[C@]12C (stereo partly shown) [vi, Glyco-22-[^75 Se]selenacholic acid]

*A*
1: 16.5; 2: 6.3; 3: 7.2

For every item in the list below, what is its measured b (amplitude of second component)?
1. C[C@H](CC[75Se]CCC(=O)O)[C@H]1CC[C@H]2[C@@H]3[C@H](O)C[C@@H]4C[C@H](O)CC[C@]4(C)[C@H]3CC[C@]12C [iii]
2. C[C@H](C[75Se]CC(=O)O)[C@H]1CC[C@H]2[C@@H]3CC[C@@H]4C[C@H](O)CC[C@]4(C)[C@H]3C[C@H](O)[C@]12C [Compound ii]

*A*
1. 37.5
2. 27.6

From: patent US4202876A
